Reference source for all entries: patent US7820759B2

Assay: Transition of paclitaxel concentrations in the rat plasma
Format: in vivo
Conditions: intravenous, blood drawing time 30 min, 5 mg/kg paclitaxel equivalent, tail vein, male SD rats
quantity measured: concentration at 30 min (ng/mL)

chemical structure: CC(=O)O[C@H]1C(=O)[C@@]2(C)[C@H]([C@H](OC(=O)c3ccccc3)[C@]3(O)C[C@H](OC(=O)[C@H](O)[C@@H](NC(=O)c4ccccc4)c4ccccc4)C(C)=C1C3(C)C)[C@]1(OC(C)=O)CO[C@@H]1C[C@@H]2O
test result: 510

----------
Test: Transition of paclitaxel concentrations in the rat plasma
Assay type: in vivo
Details: intravenous, blood drawing time 120 min, 5 mg/kg paclitaxel equivalent, tail vein, male SD rats

molecule: CC(=O)O[C@H]1C(=O)[C@@]2(C)[C@H]([C@H](OC(=O)c3ccccc3)[C@]3(O)C[C@H](OC(=O)[C@H](O)[C@@H](NC(=O)c4ccccc4)c4ccccc4)C(C)=C1C3(C)C)[C@]1(OC(C)=O)CO[C@@H]1C[C@@H]2O [Paclitaxel, paclitaxel]
unit symbol: ng/mL
concentration at 120 min: 100
